System: MDA-MB-231 (breast cancer)
Experiment: Antiproliferative activity, CCK-8 cell viability
Type: cell-based
Conditions: Homo sapiens, compound concentration of 3.3 μM, 72 h, read-out: Inhibition of Cancerous Cells, MDA-MB-231
Description: The antiproliferative activity of a compound was determined in the following cell lines: MDA-MB-231 (breast cancer), HepG2 (liver cancer), SW480 (colon cancer), B16F10 (malignant melanoma), A431 (epidermoid carcinoma), A549 (lung adenocarcinoma), and HeLa (cervical cancer). […] Briefly, cells were seeded in a 96-well plate at a density of 2,000-5,000 cells/well. […] After incubation at 37° C. for 4 h, the absorbance value of each well was determined using a multi-well plate reader at 450 nm. […]
We begin with a simple list: items and their reported inhibition at 3.3 µM.

# STRUCTURE SMILES, inhibition at 3.3 µM
data = [
    ("CC1=C(CC(=O)O)c2cc(F)ccc2/C1=C\\c1ccc(F)c(Oc2ccccc2)c1", "≥ 50%"),
    ("CC1=C(CC(=O)O)c2cc(F)ccc2/C1=C\\c1ccccc1Oc1ccccc1", "< 30%"),
    ("CC1=C(CC(=O)O)c2cc(F)ccc2/C1=C\\c1cccc(Oc2ccc(Cl)cc2)c1", "≥ 50%"),
    ("CC1=C(CC(=O)N(C)O)c2cc(F)ccc2/C1=C\\c1ccc(Oc2ccccc2)cc1", "≥ 50%"),
    ("CC1=C(CC(=O)O)c2cc(F)ccc2/C1=C\\c1cccc(Oc2cccc(C(F)(F)F)c2)c1", "≥ 50%"),
    ("CC1=C(CC(=O)O)c2c(F)cc(F)cc2/C1=C\\c1ccc(Oc2ccc(F)cc2)cc1", "≥ 50%"),
]

====

Tested on: SW480 (colon cancer)
Assay: Antiproliferative activity, CCK-8 cell viability
Assay type: cell-based
Details: Homo sapiens, compound concentration of 3.3 μM, 72 h, read-out: Inhibition of Cancerous Cells, SW480
We begin with a simple list: items and their reported inhibition at 3.3 µM.

# STRUCTURE SMILES, inhibition at 3.3 µM
rows = [
    ("COc1ccc(Oc2cccc(/C=C3/C(C)=C(CC(=O)O)c4cc(F)ccc43)c2)cc1", "< 30%"),
    ("CC1=C(CC(=O)N(C)O)c2cc(F)ccc2/C1=C\\c1ccc(Oc2ccc(F)cc2)cc1", "≥ 50%"),
    ("CC1=C(CC(=O)O)c2cc(F)ccc2/C1=C\\c1ccc(Oc2ccc(F)c(F)c2)cc1", "≥ 50%"),
    ("COc1ccc2c(c1)/C(=C\\c1ccc(COc3ccccc3)cc1)C(C)=C2CC(=O)O", "≥ 50%"),
    ("CC1=C(CC(=O)O)c2c(F)cc(F)cc2/C1=C\\c1ccc(Oc2ccc(F)cc2)cc1", "< 30%"),
    ("CC1=C(CC(=O)O)c2cc(F)ccc2/C1=C\\c1ccccc1Oc1ccccc1", "≥ 50%"),
    ("CC1=C(CC(=O)O)c2cc(F)ccc2/C1=C\\c1cccc(COc2ccc(C(C)(C)C)cc2)c1", "30 to 50%"),
    ("CC1=C(CC(=O)O)c2cc(F)ccc2/C1=C\\c1ccc(COc2ccc(F)cc2F)cc1", "≥ 50%"),
]

====

Tested on: HepG2 (liver cancer)
Experiment: Antiproliferative activity, CCK-8 cell viability
Type: cell-based
Conditions: Homo sapiens, compound concentration of 3.3 μM, 72 h, read-out: Inhibition of Cancerous Cells, HepG2
We begin with a simple list: items and their reported inhibition at 3.3 µM.
QUANTITY MEASURED: inhibition at 3.3 µM

# COMPOUND, SUBJECT OF TEST, READOUT VALUE
records = [
    ("CC1=C(CC(=O)O)c2cc(F)ccc2/C1=C\\c1cccc(Oc2ccc(C(F)(F)F)cc2)c1", "HepG2 (liver cancer)", "30 to 50%"),
    ("CC1=C(CC(=O)O)c2cc(F)ccc2/C1=C\\c1ccc(CN(Cc2ccccc2)c2ccccc2)cc1", "HepG2 (liver cancer)", "≥ 50%"),
    ("CC1=C(CC(=O)O)c2cc(F)ccc2/C1=C\\c1cccc(COc2ccc(F)cc2)c1", "HepG2 (liver cancer)", "≥ 50%"),
    ("CC1=C(CC(=O)O)c2cc(F)ccc2/C1=C\\c1ccc(Oc2ccc(F)cc2)c(C)c1", "HepG2 (liver cancer)", "30 to 50%"),
    ("CC1=C(CC(=O)NO)c2cc(F)ccc2/C1=C\\c1ccc(C(C)(C)C)cc1", "HepG2 (liver cancer)", "< 30%"),
    ("CC1=C(CC(=O)O)c2c(F)cc(F)cc2/C1=C\\c1ccc(Oc2ccc(F)cc2)cc1", "HepG2 (liver cancer)", "30 to 50%"),
    ("CC1=C(CC(=O)O)c2cc(F)ccc2/C1=C/c1ccc(Oc2ccc(F)c(F)c2)cc1 [Compound E1]", "HepG2 (liver cancer)", "≥ 50%"),
    ("CC1=C(CC(=O)N(C)O)c2cc(F)ccc2/C1=C\\c1ccc(Oc2ccccc2)cc1", "HepG2 (liver cancer)", "< 30%"),
    ("CC1=C(CC(=O)N(C)O)c2cc(F)ccc2/C1=C\\c1ccc(Oc2ccc(F)cc2)cc1", "HepG2 (liver cancer)", "< 30%"),
    ("CC1=C(CC(=O)O)c2cc(F)cc(F)c2/C1=C/c1cccc(Oc2ccccc2)c1", "HepG2 (liver cancer)", "≥ 50%"),
    ("CC1=C(CC(=O)O)c2cc(F)cc(F)c2/C1=C\\c1cccc(Oc2ccccc2)c1", "HepG2 (liver cancer)", "≥ 50%"),
    ("COc1ccc(Oc2cccc(/C=C3/C(C)=C(CC(=O)O)c4cc(F)ccc43)c2)cc1", "HepG2 (liver cancer)", "< 30%"),
    ("CC1=C(CC(=O)O)c2cc(F)ccc2/C1=C\\c1cccc(Oc2ccc(Cl)cc2)c1", "HepG2 (liver cancer)", "30 to 50%"),
    ("CC1=C(CC(=O)O)c2cc(F)ccc2/C1=C\\c1ccccc1Oc1ccccc1", "HepG2 (liver cancer)", "≥ 50%"),
    ("COc1ccc2c(c1)/C(=C\\c1ccc(COc3ccccc3)cc1)C(C)=C2CC(=O)O", "HepG2 (liver cancer)", "30 to 50%"),
    ("CC1=C(CC(=O)O)c2cc(F)ccc2/C1=C\\c1cccc(COc2ccc(F)c(F)c2)c1", "HepG2 (liver cancer)", "≥ 50%"),
]

====

Tested on: MDA-MB-231 (breast cancer)
Experiment: Antiproliferative activity, CCK-8 cell viability
Format: cell-based
Conditions: Homo sapiens, compound concentration of 3.3 μM, 72 h, read-out: Inhibition of Cancerous Cells, MDA-MB-231

# MOLECULE, SUBJECT OF TEST, inhibition at 3.3 µM
rows = [
    ("CC1=C(CC(=O)O)c2cc(F)cc(F)c2/C1=C\\c1ccc(Oc2ccc(F)cc2)cc1 [Compound D15]", "MDA-MB-231 (breast cancer)", "≥ 50%"),
    ("CC1=C(CC(=O)O)c2cc(F)ccc2/C1=C/c1ccc(Oc2ccc(F)c(F)c2)cc1 [Compound E1]", "MDA-MB-231 (breast cancer)", "≥ 50%"),
    ("CC1=C(CC(=O)O)c2cc(F)ccc2/C1=C\\c1cccc(COc2ccccc2)c1 [Compound A5]", "MDA-MB-231 (breast cancer)", "≥ 50%"),
    ("CC1=C(CC(=O)O)c2cc(F)ccc2/C1=C\\c1ccc(CN(Cc2ccccc2)c2ccccc2)cc1 [Compound A10]", "MDA-MB-231 (breast cancer)", "≥ 50%"),
    ("CC1=C(CC(=O)N(C)O)c2cc(F)ccc2/C1=C\\c1ccc(Oc2ccc(F)cc2)cc1 [Compound B2]", "MDA-MB-231 (breast cancer)", "≥ 50%"),
    ("CC1=C(CC(=O)O)c2cc(F)cc(F)c2/C1=C/c1ccc(Oc2ccc(F)cc2)cc1 [Compound E4]", "MDA-MB-231 (breast cancer)", "≥ 50%"),
    ("CC1=C(CC(=O)O)c2cc(F)ccc2/C1=C\\c1cccc(COc2ccc(F)cc2F)c1 [Compound A19]", "MDA-MB-231 (breast cancer)", "≥ 50%"),
    ("COc1ccc2c(c1)/C(=C\\c1ccc(CN(C)c3ccccc3)cc1)C(C)=C2CC(=O)O [Compound A13]", "MDA-MB-231 (breast cancer)", "< 30%"),
    ("CC1=C(CC(=O)O)c2cc(F)ccc2/C1=C\\c1cccc(COc2ccc(F)c(F)c2)c1 [Compound A20]", "MDA-MB-231 (breast cancer)", "≥ 50%"),
    ("CC1=C(CC(=O)O)c2cc(F)cc(F)c2/C1=C/c1cccc(Oc2ccccc2)c1 [Compound E7]", "MDA-MB-231 (breast cancer)", "≥ 50%"),
    ("O=C(O)CC1=C/C(=C/c2ccc(Oc3ccc(F)cc3)cc2)c2ccccc21 [Compound D32]", "MDA-MB-231 (breast cancer)", "< 30%"),
    ("COc1cccc2c1C(CC(=O)O)=C(C)/C2=C/c1ccc(COc2ccccc2)cc1 [Compound A11]", "MDA-MB-231 (breast cancer)", "< 30%"),
    ("COc1ccc2c(c1)/C(=C\\c1ccc(COc3ccccc3)cc1)C(C)=C2CC(=O)O [Compound A12]", "MDA-MB-231 (breast cancer)", "< 30%"),
    ("CC1=C(CC(=O)O)c2cc(F)cc(F)c2/C1=C\\c1cccc(Oc2ccccc2)c1 [Compound D20]", "MDA-MB-231 (breast cancer)", "30 to 50%"),
    ("CC1=C(CC(=O)O)c2cc(F)ccc2/C1=C\\c1ccc(Oc2ccc(F)cc2)c(C)c1 [Compound D13]", "MDA-MB-231 (breast cancer)", "< 30%"),
]
